Assayed System: DRB1*0404 (Homo sapiens, UniProt P01903+P01911, A100R/A169T/F76Y/I96L/K127E/L162R/M171V/N62H/P40V/Q125Y/R42H/S133A/S149N/S66Y/V209L/W38E)
Protocol Summary: biochemical
Type: binding
Protocol Conditions: IC50 nM to purified HLA DRB1*0404
# note: exactly 600 nM is not below, so it is F; use T for IC50 strictly under it

[
  {
    "Compound Structure": "CC(C)[C@H](NC(=O)[C@H](CCC(=O)O)NC(=O)[C@H](C)NC(=O)[C@@H](NC(=O)[C@H](Cc1ccccc1)NC(=O)[C@H](Cc1ccc(O)cc1)NC(=O)[C@H](CC(N)=O)NC(=O)[C@@H](N)CCCNC(=N)N)[C@@H](C)O)C(=O)N[C@@H](CO)C(=O)N[C@@H](Cc1c[nH]cn1)C(=O)N[C@@H](CS)C(=O)N[C@@H](CCCNC(=N)N)C(=O)N[C@@H](C)C(=O)N[C@H](C(=O)N[C@@H](CCC(=O)O)C(=O)O)[C@@H](C)O",
    "Qualitative Label": "F"
  },
  {
    "Compound Structure": "CC[C@H](C)[C@H](NC(=O)[C@H](CCSC)NC(=O)[C@H](CS)NC(=O)[C@H](CC(=O)O)NC(=O)[C@H](CCC(=O)O)NC(=O)[C@H](CCC(N)=O)NC(=O)[C@H](CO)NC(=O)[C@H](Cc1ccccc1)NC(=O)[C@@H](NC(=O)[C@H](CCSC)NC(=O)[C@H](C)N)C(C)C)C(=O)N[C@@H](CCCCN)C(=O)N[C@@H](C)C(=O)N[C@H](C(=O)N[C@@H](CCCNC(=N)N)C(=O)O)C(C)C",
    "Qualitative Label": "T"
  },
  {
    "Compound Structure": "CC[C@H](C)[C@H](NC(=O)[C@H](CCCNC(=N)N)NC(=O)[C@H](CCCNC(=N)N)NC(=O)[C@@H](NC(=O)[C@H](CCC(=O)O)NC(=O)[C@H](CCC(=O)O)NC(=O)[C@H](CCCCN)NC(=O)[C@H](CC(=O)O)NC(=O)[C@H](Cc1ccc(O)cc1)NC(=O)[C@H](CC(C)C)NC(=O)[C@@H](NC(=O)[C@H](CC(C)C)NC(=O)[C@H](CCC(=O)O)NC(=O)[C@@H](N)CCCNC(=N)N)[C@@H](C)CC)[C@@H](C)CC)C(=O)N[C@@H](Cc1c[nH]c2ccccc12)C(=O)O",
    "Qualitative Label": "F"
  }
]

Now consider the entry below.
Ask: Strictly below 600 nM in IC50? CC[C@H](C)[C@H](NC(=O)[C@H](CO)NC(=O)[C@@H](NC(=O)[C@@H](NC(=O)[C@@H](NC(=O)[C@@H](N)CCCNC(=N)N)C(C)C)C(C)C)C(C)C)C(=O)N[C@@H](CC(=O)O)C(=O)N[C@@H](CCCNC(=N)N)C(=O)N[C@@H](Cc1ccccc1)C(=O)N[C@@H](CC(C)C)C(=O)N[C@@H](CCCNC(=N)N)C(=O)N[C@H](C(=O)N[C@@H](CCCNC(=N)N)C(=O)N[C@@H](CC(=O)O)C(=O)N[C@@H](CCC(N)=O)C(=O)O)C(C)C
Reply: T
